procedure_summary: yeast display, Sf9 membrane polyspecificity reagent, FACS + sequencing; frameworks hold sequencing errors
recorded_metric: polyreactivity (PSR sort gate)

Known results for sequences:
Data request: Name the reported polyreactivity (PSR sort gate) value associated with the sequence `QVQLVESGGGLVQAGGSLRLSCAASGFTFGNYVMGWYRQAPGKERELVAAISKRGTSTYYADSVKGRFTISRDNAKNTVYLQMNSLKPEDTAVYYCAADGVYSHKDGLWGQGTQVTVSS`
Data returned: high polyreactivity

Data request: Endpoint output: polyreactivity (PSR sort gate) of `QVQLEESGGRLVQAGASLRLSCAASGSIFEDYVMGWYRHAPGKERELVADITSGGTTYYADSVKGRFTISRDYAKNTVYLQMNRLKPEATAVYYCNAYLIVDYGDETPYASLHDYWGQGTQVTVSS` . Value?
Data returned: low polyreactivity

Data request: Look at this sequence and give its reported polyreactivity (PSR sort gate). `QVQLEESGGGLVQAGGSLRLSCAASGSTFVPYAMGWYRQAPGKERELVASISWRGGSTSYADSVKGRFTISRDNAKNTVYLQMNSLKPEDTAVYYCAADLGLDYDDAQTRVVVTSEDYWGQGTQVTVSS`
Data returned: high polyreactivity

Data request: Could you tell me which polyreactivity (PSR sort gate) is on file for `QVQLVESAAGLVQAGGSLRLSCAASGSTFAGNAMGWYRQAPGKERELVAAIDSSTGSTYYADSVKGRFTISRDNAKNTVYLQMNSLKPEDTAVYYCNKTSFLVKLDYWGQGTQVTVSS` ?
Data returned: low polyreactivity

Next:
Data request: Report polyreactivity (PSR sort gate) for `QVQLVESGAGLVQAGGSLRLSWAASGSNYDIYAMGWYRQAPGKERELVAAITGSGGSTNYADSVKGRFTISRDNAKNTVYVQLNSLKPEDTAVYYCAAAGFDYPSDTYGYWGQGTQVTVSS` please.
Data returned: low polyreactivity

----------
procedure_summary: yeast display, Sf9 membrane polyspecificity reagent, FACS + sequencing; frameworks hold sequencing errors
recorded_metric: polyreactivity (PSR sort gate)

Guide cases for polyreactivity (PSR sort gate), answers given:
Data request: # lookup: polyreactivity (PSR sort gate) of `QVQLVESGGGLVQAGGSLRLSCAASGSIFAINAMGWYRQAPGKERELVARISWSGGRTYYADSVKGRFTISRDNAKNTVYLQMNSLKPEDTAVYYCAKRYYKSLNRDEFDSWGQGTQVTVSS`
Data returned: high polyreactivity

Data request: Param item = `QVQLVESGGGLVQAGGSLRLSCAASGRIFRYNAMGLYRQAPGKERELVAAISRGGSSTYYADSVKGRFTISRDNAKNTVYLQMNSLKPEDTAVYYCNARSVVREFNYWGQGTQVTVSS` ; retrieve measured polyreactivity (PSR sort gate).
Data returned: high polyreactivity

Data request: Entry `QVQLVESGGGLVQAGGSLRISCAASGSTFYRYPMAWYRQAPGKERELVAAISGSGGRTYYADSVKGRFTISRDNAKNTVYLQMNSLKPEYTAVYYCATRFGQRSDYWGQGTQVTVSS` has what polyreactivity (PSR sort gate)?
Data returned: high polyreactivity

Data request: Bench note: what polyreactivity (PSR sort gate) did `HVQLVESGGGLVQAGGSLRLSCAASGRIFRINVMGWCRQAPGKERELVAAISGRGGSTYYADSVKGRFTISRDNAQNTDYLQMNRLKPEDTAVYYFAARSPYRYYYWGQGTQVTVSS` show?
Data returned: high polyreactivity

Data request: Which polyreactivity (PSR sort gate) is listed for `QVQLIESGGGLVQAGGSLRLSCAASGNIFAVYAMGWYRQAPGKERELVASITVSGASTYYADSVKGRFTISRDNAKNTVYLQMNSLKPEDTAVYYCAARIGSNQRKRYYWGQGTQVTVSS` ?
Data returned: high polyreactivity

Data request: Would you kindly share the measured polyreactivity (PSR sort gate) for `QVQLVESGGGLVQAGGSLRLSCAASGRILYYYVMGWYRPAPGKEREFVAAISSSASNTYYADSVKGRITISRDNAKNTVEFQMNSLKPEDTAVYYCAADTLWLDWQGYDYWGQGTQVTVSS` ?
Data returned: low polyreactivity

Data request: Query (sequence): `QVQLVESGGRLVQAGGSLRLSCAASGSTIKSYAMGWYRQAPGKERELVAGITSGDSTNYADSVKGRFTISRDNAKNTVYFQMNSLKPDDTAVYYCNAVTQARYYYWGQGYQVTVSS` ; field requested: polyreactivity (PSR sort gate)
Data returned: low polyreactivity

Data request: # query: polyreactivity (PSR sort gate) of entry `QVQLVESGGGLVQAGGSLRLSCAASGRTFYHYAMGWYRQAPGKERELVATITSSGGNTYYADSVKGRFTISRDNSKNTVYLQMNSLKPEDTEVYYCAADWFVYQYSFGSSEYYYWGQGTQVTVSS`
Data returned: low polyreactivity

More entries:
Data request: Item `QDQLVESGGGLVQAGGSLRLSCAATGRTFYFYTMGWYRQAPGKERELVATAITSGGSTNYADSVKGRFTISRDNAKNTVYLQMNSLKPEDTAVYYCAATLYWGWVFSYTSFDYWGQGTQVTVSS` has what recorded polyreactivity (PSR sort gate)?
Data returned: low polyreactivity

Data request: Name the reported polyreactivity (PSR sort gate) value associated with the sequence `QVQLVESGGGLVQAGGSLRLSCAASGGTFEYNAMGWYRQAPGKERELVAAISKSGGRTYFADSVKGRFTISRDNAMNTVYLQMNSLKPEDTAVYYCAKRYVWGQGTQVTVSS`
Data returned: high polyreactivity

Data request: Return reported polyreactivity (PSR sort gate); argument: `QVQLVESGGGLVQAGGSLRLSCAASGRTLAPNAMGWYRQAPGKERELVSTITRGGTTNYADSVKGRFTISRDNAKNTVYLQMNSLKPEDTAVYYCAKAHYLGYYQRYDYWGQGTQVTVSS`
Data returned: low polyreactivity

----------
procedure_summary: yeast display, Sf9 membrane polyspecificity reagent, FACS + sequencing; frameworks hold sequencing errors
recorded_metric: polyreactivity (PSR sort gate)

Here are 10 sequences together with their reported answers.
Data request: Entry `QVQLQESGGGLEQAGGSLRLSCAASGYISDIGTMGWYRQAPAKEREFVATIVVGSTTNYADSVKGRFTISRDNAKNTVYLQPESGRYRGVLLSGWLLAVGKFTYWGQGTQETVSS` has what polyreactivity (PSR sort gate)?
Data returned: low polyreactivity

Data request: Would you mind telling me what polyreactivity (PSR sort gate) value was observed for `QVQHVESGGGLVQAGGSLRLSCAASGYTYDPNAMGWYRQAPGKERELVAAISRIGGSTYYADSVKGRFRISRDNAKNTVYLQMNSLKREDTAVYYCAQEYYDGYFPTFDYDYWGQGTQVTVSS` ?
Data returned: low polyreactivity

Data request: GET /values?readout=polyreactivity (PSR sort gate)&item= `QVQLVESGGGLVQAGGSLRLSCAASGSIFKKYAKGWYIQAPGKERELVAAISKSGGSTYYADSVKGRFTISRDNAKTTVYLQMNSLKPEDTAVYYCAAAAGGSAYWDYDYWGQGTQVTVSS`
Data returned: low polyreactivity

Data request: Record request: polyreactivity (PSR sort gate) value, item `QFQLVESGGGLVQAGGSLRLSCAASGSTFGTYAMGWYRQAPGKERELVAAISSGGSTYYADSVKGRFTISRDNAKNTVYLQMNSLKPEDTAVYYCAAGYYWYVWGFGYWGQGTQVTVSS`
Data returned: low polyreactivity

Data request: Reported polyreactivity (PSR sort gate) for `QVQLVESGGGLVQAGGSLRLSCAASGSTFSGNAMGWYRQAPGKERELVAAINSVRTYYADSVKGRFTISRDNAKNTVYLQMNSLKPEDTAVYYCAARQGYSSRYPAKGYYWGQGTQVTVSS` : what is it?
Data returned: high polyreactivity

Data request: Field request: polyreactivity (PSR sort gate) | item: `QVQLVESGGGLVQAGGSLRLSCAASGSTFYYYAMGWYRQAPGKERELVASISFSGGSTYYADSVKGRFTISRDNAKNTVYLEMNRLKPEDTAVYYCGYYYWGQGTQVTVSS`
Data returned: low polyreactivity

Data request: Report polyreactivity (PSR sort gate) for `QVQLVESGGGLVQAGGSLRLSCAASGRILGFYAMGWYRQAPGKERELVARINWSGTRTYYADSVKGRFTISRDNAKNTVYLQMNSLKPEDTAVYYCAARRYYPYDYWGQGTQVTVSS` please.
Data returned: high polyreactivity

Data request: // lookup polyreactivity (PSR sort gate) for `QVQLVESGGGLVQAGGSLRLICAASGSTFATYSMGWYRQAPGKERELVAAITLRGGRTYYADSVKGRFTISRDNAKNTVYLQMNSLKPEDTAVYYCAAEYYYLSFGLTWWRGFDYWGQGTHVTVSS`
Data returned: high polyreactivity

Data request: Looking for the measured polyreactivity (PSR sort gate) of `QVQLVESGGALVQAGGSLRLSCAASGSTFSWYAMGWYRQAPGKERELVAAITTRGGSTYYADSVKGRFTISRDNAKNTVYLQMTRLKPEDTAVYYCAADDGWDFGRGRYDYWGQGTQVTVSS` , can you help?
Data returned: low polyreactivity

Data request: Param item = `QVQLVESGGGIVQAGGSLRLSCAASGLTIPPNAMGWYRQAPGKEREFVAAITWSGGSTYYADSVKGRFTISRDNAKNTVYLQMNRLKPEDSAVYYCNRVTAYYPTKFDYWGQGTQVTVSS` ; retrieve measured polyreactivity (PSR sort gate).
Data returned: high polyreactivity

---
Data request: Can you share its polyreactivity (PSR sort gate)? I mean this sequence: `QVQLVESGGGLVQAGGSLRLSCAASGRTFGKNAMGWYRQAPGKERELVAAISWSGGRTYYADSVKGRFTISRDNAKNTVYLQMNSLKPEDTAVYYCATASYRNPSDYWGQGTQVTVSS`
Data returned: high polyreactivity
